Where do the numbers come from? From paper PMC8518382.

Observed Ki, system 15-LOX-1 (Homo sapiens).
Endpoint label: Ki (µM)

Compound	Tgt	Endpoint label	Result units	Observed
CCC#CCC#CCCOC(=O)CCCC[C@@H]1SC[C@@H]2NC(=O)N[C@@H]21	15-LOX-1 (Homo sapiens)	Ki	µM	16.6

(P) CCC#CCC#CCOC(=O)CCCC[C@@H]1SCC2NC(=O)NC21 (stereo partly drawn)
(Q) CCCCCC#CCC#CCOC(=O)CCCC[C@@H]1SC[C@@H]2NC(=O)N[C@@H]21 [Labelox B (3)]
In: Please compare: P and Q . Report which one has the smaller Ki value. State your choice using its label.
Out: Q

* * *

Target: 15-LOX-1 (Homo sapiens)
Sequence (P16050 whole entry): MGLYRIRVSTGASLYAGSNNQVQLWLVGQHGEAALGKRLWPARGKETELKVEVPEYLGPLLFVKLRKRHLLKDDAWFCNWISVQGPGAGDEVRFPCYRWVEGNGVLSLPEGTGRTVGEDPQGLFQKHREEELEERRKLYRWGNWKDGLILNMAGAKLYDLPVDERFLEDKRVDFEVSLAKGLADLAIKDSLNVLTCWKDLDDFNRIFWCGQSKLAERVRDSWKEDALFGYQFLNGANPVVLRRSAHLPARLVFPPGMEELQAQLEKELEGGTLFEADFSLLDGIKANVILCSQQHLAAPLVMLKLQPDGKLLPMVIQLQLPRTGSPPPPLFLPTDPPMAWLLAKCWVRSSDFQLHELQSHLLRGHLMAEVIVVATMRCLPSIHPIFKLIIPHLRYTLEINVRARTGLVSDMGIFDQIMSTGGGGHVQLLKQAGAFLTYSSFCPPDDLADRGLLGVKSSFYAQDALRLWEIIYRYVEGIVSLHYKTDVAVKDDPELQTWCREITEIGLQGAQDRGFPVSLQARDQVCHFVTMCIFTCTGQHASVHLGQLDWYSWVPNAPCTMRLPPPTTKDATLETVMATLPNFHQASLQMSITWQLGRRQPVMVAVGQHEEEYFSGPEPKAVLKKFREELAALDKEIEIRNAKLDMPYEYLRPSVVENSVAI
Test: Kitz-Wilson kinetic analysis of 15-LOX-1 inactivation
Type: biochemical
Parameters: His-tag (N); made in house; host or cells: E. coli BL21(DE3)
Endpoint label: k i (rate of covalent inactivation) (min⁻¹)

Example results:
Compound	Result units	k i (rate of covalent inactivation)
CCCCCC#CCC#CCOC(=O)CCCC[C@@H]1SC[C@@H]2NC(=O)N[C@@H]21 [Labelox B (3)]	min⁻¹	0.0191
CCC#CCC#CCCOC(=O)CCCC[C@@H]1SC[C@@H]2NC(=O)N[C@@H]21	min⁻¹	0.0093

(P) CCC#CCC#CCOC(=O)CCCC[C@@H]1SCC2NC(=O)NC21 (stereo partly shown)
(Q) CCC#CCC#CCCCOC(=O)CCCC[C@@H]1SC[C@@H]2NC(=O)N[C@@H]21
In: Returns the identifier with the smallest measured k i (rate of covalent inactivation) among P and Q . Write down the label of the entry you select.
Out: Q
